B1: library; numbered along this chain (parent)
chain: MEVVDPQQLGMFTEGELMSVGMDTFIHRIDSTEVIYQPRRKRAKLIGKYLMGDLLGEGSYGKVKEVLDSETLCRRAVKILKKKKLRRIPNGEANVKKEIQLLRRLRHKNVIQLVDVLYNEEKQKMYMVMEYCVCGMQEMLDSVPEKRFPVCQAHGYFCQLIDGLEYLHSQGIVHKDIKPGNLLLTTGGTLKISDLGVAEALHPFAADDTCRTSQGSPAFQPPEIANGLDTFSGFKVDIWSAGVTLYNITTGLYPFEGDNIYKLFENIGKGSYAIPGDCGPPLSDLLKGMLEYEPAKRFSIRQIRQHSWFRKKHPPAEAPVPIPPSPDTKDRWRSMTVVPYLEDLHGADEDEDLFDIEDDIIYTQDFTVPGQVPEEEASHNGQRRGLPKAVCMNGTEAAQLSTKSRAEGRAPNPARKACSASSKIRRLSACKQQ

# Variants of: B1
# test details: STK11 functional score (HeLa growth suppression), rescaled enrichment; synonymous median = 1, nonsense median = 0 (normalised score)
# test parameters: with HeLa; variant type: missense
Please mark condition met if the recorded STK11 functional score is equal to or greater than 1, and condition not met if it falls below.

Qu. Exam item: decide whether the reported STK11 functional score for `Q371I` is at least 1.
Ans. condition met

Qu. Tell me whether STK11 functional score is at least 1 here: `S401T`
Ans. condition not met

Qu. Check the entry `R405D` : does STK11 functional score equal or exceed 1?
Ans. condition not met

Qu. Could you please find out whether `H306V` has STK11 functional score that meets 1 or exceeds it?
Ans. condition not met

Qu. Given `I35D` , state whether its STK11 functional score is at least 1.
Ans. condition met

Qu. Could you tell me if the measured STK11 functional score of `M139A` reaches 1 or more?
Ans. condition met

Qu. Hi team, for `K311N` , is the recorded STK11 functional score at or above 1?
Ans. condition not met

Qu. Item `L263C` with STK11 functional score of 1 or above?
Ans. condition met

Qu. Determine whether measured STK11 functional score meets or exceeds 1 for `Y156E`
Ans. condition met

Qu. Exam item: decide whether the reported STK11 functional score for `A410Q` is at least 1.
Ans. condition met

Qu. Item `Q220K` with STK11 functional score of 1 or above?
Ans. condition not met

Qu. Check this variant for STK11 functional score at or above 1: `E65M`
Ans. condition not met

Qu. Item `K64R` with STK11 functional score of 1 or above?
Ans. condition met

Qu. Textbook exercise: given the entry `P222M` , state whether its STK11 functional score is greater than or equal to 1.
Ans. condition not met

Qu. Confirm if STK11 functional score reported for the variant `S216L` is 1 or above.
Ans. condition not met

Qu. Test whether the variant `V368G` records STK11 functional score of 1 or higher.
Ans. condition met

Qu. Evaluate `R383Q` : STK11 functional score at minimum 1?
Ans. condition met

Qu. State whether the measured STK11 functional score reaches 1, counting equality as reaching it, for `G381C`
Ans. condition met

Qu. Check this variant for STK11 functional score at or above 1: `E349D`
Ans. condition met

Qu. Please check the record `E65D` and state if its STK11 functional score is at or above 1.
Ans. condition met

Qu. I'd appreciate it if you could say whether `G215I` has STK11 functional score at least equal to 1.
Ans. condition not met

Qu. Threshold query (STK11 functional score >= 1) on `G251T`
Ans. condition met
